System: BT-549 breast
Assay: NCI-60 one-dose screen, 48 h (100 = growth as untreated, 0 = no growth, -100 = all killed)
Conditions: 10 µM unless noted
This is part of a sample that, as a whole, favours compounds with a hit. Of some 83,000 tested, about 20% had one in any assay.
readout_kind: growth (%)

| molecule | test_system | readout_kind | result |
| --- | --- | --- | --- |
| CC1=C(C#N)C2=NNCC(c3ccccc3)=NN2C(c2ccccc2)=C1 | BT-549 breast | growth | 104 |
| OCNc1ccc(-n2cnc3cc(-c4ccc(O)cc4)ccc32)cc1C(F)(F)F | BT-549 breast | growth | 24 |
| Cc1ccc(NC(=O)CN2CCN(c3ncnc4c3cnn4-c3ccccc3)CC2)cc1 | BT-549 breast | growth | 85 |
| COc1cc2c(c(OC)c1OC)C(=O)CC(c1cccc(NC(=O)c3cccc(NC(=O)[C@H](C)NC(=O)OC(C)(C)C)c3)c1)O2 (stereo not given in full) | BT-549 breast | growth | 36.9 |
| COc1ccc(NC(=O)Nc2ccc(OCc3ccc(F)cc3)cc2)cc1 | BT-549 breast | growth | 84.9 |
